system: T-47D breast; assay: NCI tumour cell line growth inhibition, 48 h
quantity_name: TGI

As a guide, the following entries are already answered.
compound=COc1cc(O)c2c(=O)c(O)c(-c3ccc(O)c(OC)c3)oc2c1 result="> 100 µM"
compound=CON(C)c1nc(N(C)OC)nc(N(C)OC)n1 result="> 10 µM"
compound=CCOC(=O)c1nc2cc(C(F)(F)F)ccc2nc1Nc1ccc(OC)cc1 result="> 100 µM"
compound="CC1CN=C(N(Cc2ccccc2)C(=O)Nc2ccc(Cl)c(Cl)c2)S1 (stereo not drawn)" result="> 100 µM"
compound=Cc1cc(N(CCC#N)CCC#N)ccc1/C(N=Nc1cccc(Cl)c1)=N/NC(=O)c1cc(Cl)ccc1O result="60.6 µM"

Hi! What's the reported TGI for "Cc1ccc2nc(N/N=C/c3sccc3C)cc(C)c2c1" on T-47D breast?
> 100 µM

Input CCc1c(C)c(C#N)c(=S)n(C2OC(COC(C)=O)C(OC(C)=O)C(OC(C)=O)C2OC(C)=O)c1-c1ccccc1 (stereo not drawn)
> 31.6 µM

Input "Nc1nc(Nc2ccccc2)c2[nH]cnc2n1"
> 100 µM

* * *

tested on: NCI-H522 lung; assay: NCI tumour cell line growth inhibition, 48 h; in the data active = GI50 below about 0.43 µM; inactive = the rest
Thanks in advance; please answer with one of these: y = active, n = inactive

Reference set (4 entries):
molecule=C(=N/N(Cc1ccccc1)Cc1ccccc1)/c1ccccc1 assigned_class=n
molecule=Cc1ccc(-c2nc([P+](c3ccccc3)(c3ccccc3)c3ccccc3)c(S(=O)(=O)c3ccc(C)cc3)o2)cc1 assigned_class=n
molecule=Cn1cc(C2=C(c3cccc(OC[C@@H](O)CO)c3)C(=O)NC2=O)c2ccccc21 assigned_class=n
molecule=N#CCN1CCn2c1nsc2=S assigned_class=n

# outcome recorded in this test, key = "CC(C)(O)CNc1nc(Nc2ccnc(C(F)(F)F)c2)nc(-c2cccc(C(F)(F)F)n2)n1"
n

Input "Oc1c(I)cc(I)c2cccnc12"
n

Input "Nc1nc(Nc2ccccc2SSc2ccccc2Nc2nc(N)nc(C(Cl)(Cl)Cl)n2)nc(C(Cl)(Cl)Cl)n1"
n

Input C#CCNC(=O)[C@H](CC)[C@H]1CC[C@H](C)[C@H]([C@@H](C)[C@H](O)[C@H](C)C(=O)[C@H](CC)C2O[C@]3(C=CC(=O)[C@]4(CC[C@@](C)([C@H]5CC[C@](O)(CC)[C@H](C)O5)O4)O3)[C@H](C)C[C@@H]2C)O1 (stereo not given in full)
n

Input "C=CCN1CC(=O)N2[C@@H](Cc3ccc(O)cc3F)C(=O)N(Cc3cccc(N4CC(N5CCN(CC)CC5)C4)n3)C[C@@H]2N1C(=O)NCc1ccccc1"
y

Input "COc1cc2nc(-c3cc(F)ccc3O)nc(N[C@@H]3CNC[C@H]3C(C)(C)O)c2cc1OC"
n

* * *

tested on: SK-MEL-2 melanoma; assay: NCI tumour cell line growth inhibition, 48 h
quantity_name: GI50

As a guide, the following entries are already answered.
compound=COC(=O)c1cncc(/C=C/c2c(C)cc(O)cc2C)c1 result="8.31 µM"
compound="COc1ncnc(NS(=O)(=O)c2ccc(N=C3C(=O)N(CN4CCN(c5c(F)cc6c(=O)c(C(=O)O)cn(C7CC7)c6c5OC)CC4C)c4ccc(Br)cc43)cc2)c1OC (centres undefined)" result="20.5 µM"
compound=COc1ccc(-c2nc(/C=C3\SC(=NCc4ccccc4)NC3=O)c3ccccn23)cc1 result="2.19 µM"

Then this compound:
Which GI50 reading was recorded for the compound "COc1ccc(N(CC(=O)NCCC[Te]c2ccccc2)C(=O)CNC(=O)OC(C)(C)C)cc1" ?
2.99 µM
